# key: entry, value: apparent KD of MS2 coat protein
System: MS2 coat protein
EXPERIMENTAL PROTOCOL: apparent KD of MS2 coat protein; higher = weaker reporter binding
CONDITION NOTES: Eterna round: R107; input ligand: arginine 13.2 mM

INPUT SEQUENCE	SYSTEM TESTED	apparent KD of MS2 coat protein
CUUCAGGGUGCGGCCGCCACUUAUUAGGUGCUUGCGACGCCAGCACAUGAGGAUCACCCAUGUUCAAGGACCGGGCACCACCUUU [theeternabot_sameState_MS2_Trp_B_21]	MS2 coat protein	8.14 nM
UUAACGAGCUGAAGGAGCGCUCUUCAUCAACAUGAGGAUCACCCAUGUACACAUAAUAGGGAGCAGGUAGGUCGCAGCGGGAUGG [#24 Same State - Arginine B]	MS2 coat protein	14.2 nM
CCUAUGCAGUCGGCCGCCACUGAUAACGUUAUCGUUACCUCAGAAACAUGAGGAUCACCCAUGUACAGGACCGGGACUGUAUAGG [Ex Tryptophan B 19]	MS2 coat protein	14.4 nM

###

System: K4 kissing-loop RNA reporter;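 note: bound reporter read as fluorescence of individual clusters on recovered sequencing chips by microscopy, with normalized cluster intensities fitted with a binding model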
EXPERIMENTAL PROTOCOL: apparent KD of K4 kissing-loop reporter; higher = weaker reporter binding
CONDITION NOTES: Eterna round: R107; input ligand: theophylline 20 uM
Rule: True for apparent KD of K4 kissing-loop reporter not less than 600 nM, False for anything less.

INPUT SEQUENCE	LABEL VALUE
CAUGGAGUGAUGCUCCAUGAUCGGGCUUGGCAGGAUAUGGGAUCUUCCAGAAGGGCCGAUCCCAGCGAGUGAUGUUCGCUGGUCU [Exclusion FMN A GF 27]	False
AUUCAUUUCAGAGGAUAUCGCUGGAGAGUGAUGUUCUCCCAUAGUCAGUGAUGUUGGCUAGCUAUGCGAGAAGGCUGUGGGUGGA [Same State FMN B GF 28]	False
UGCGCUGUGUCCUGAAAUGUCCUCCGGGAUACCAGAGUCUUUUUAUUCCCUUGGCAGCUUGAGUGAUGUUUGAUGCCGUUCUUGU [yvvymullin]	False
UGUGCCAAAUGUGAUACCAGCUUCCUGCAGUGAUGUUGCAUACGAGUGAUGUUCGUCCGAGGCCCUUGGCAGCGCAGUCGUUUGA [Same State Theophylline B GF 27]	False
CCGAAGAACCAGUGAUGUUGGUUGACUAGACAGGAUAUGAGCAACAUCAGAAGGGUCUGGCUUCGGGAGUGGGCCGCGCUGACCU [Artilati]	True
GCCUAGCAGGGAAGGAGCGGCAUAAGCAUAGAUAAUAUGCAGUUAGUGAUGUUAAUACUAUGCCAGGUAGGUCGCCCUGCUAGGC [KL-SSArg B7]	True

###

Tested on: MS2 coat protein
EXPERIMENTAL PROTOCOL: apparent KD of MS2 coat protein; designed switch direction (-1 OFF switch, 1 ON switch): -1; higher = weaker reporter binding
CONDITION NOTES: input ligand: FMN 200 uM

INPUT SEQUENCE	apparent KD of MS2 coat protein [µM]
AGAGUGCUGCGAGGAUAUACAUGAGGAUCACCCAUGUAAAAGUGUGAGGCAAAGCCUCACACUAUGUAGAAGGCGCAGUACUCA [Mat - Exclusion NG 2 - Mod of JL - D11] (Eterna round: R96, puzzle: Exclusion NG 2)	0.0202
GACCGGUAAGGAUAUGUAUCUUUCAGGACACUACCGAAGAUGCAGAAGGUACAUGAGGAUCACCCAUGUGGGCU [Eternabot (L1) Solution 36] (Eterna round: R97, puzzle: Exclusion 4)	0.227
UGUUGUCGCGCAGGAUAUGAGGAUCACCCAUAUAAAGGAUAUGAAAAGAAGGUUCUGAGGAUUACCCAGAAGGGCGGGACAACU [pwkr exNG2 2xF5 2xFMN.16] (Eterna round: R96, puzzle: Exclusion NG 2)	0.25
CCUCCACAUGAGGAUCACCCAUGUGAGGAUAUCCUGCGAGGAUCAAAAGAUCCUCGUGGGAGAAGGCACAUGAA [Omei Ex1 A9] (Eterna round: R97, puzzle: Exclusion 1)	0.241
CUAGCAAUUGUAGGAUAUCGAUGUGUUUCACAUCGAGAAGGACAUGAGGAUCACCCAUGUGAAAGGAUCGUGAGAUCCAGCUAG [JL ENG1 3.75] (Eterna round: R96, puzzle: Exclusion NG 1)	0.0967
